# Residual trypsin activity listing for each entry below
experimental-system: bovine trypsin (Bos taurus)
Sequence (P00760 24-246): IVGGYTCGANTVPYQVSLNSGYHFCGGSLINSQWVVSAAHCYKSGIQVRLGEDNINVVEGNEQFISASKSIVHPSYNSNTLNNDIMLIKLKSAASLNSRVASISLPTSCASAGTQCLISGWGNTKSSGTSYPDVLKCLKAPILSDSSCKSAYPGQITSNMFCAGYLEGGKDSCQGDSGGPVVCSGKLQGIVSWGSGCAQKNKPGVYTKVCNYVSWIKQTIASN
measurement-protocol: Trypsin inhibitory activity of peptides (BApNA hydrolysis, OD405; IC50, Ki, residual activity)
Type: biochemical
stated-conditions: peptide 0.98 μM
Bridge positions count the residues as written; N and C are the ends. Square brackets hold non-standard residues; d marks the D form. Peptide text beside a SMILES is read from it. Nle = CCCC[C@H](N)C(=O)O
Give the number; % is assumed, so skip it.

Worked examples, 5 compounds total:
compound: CC[C@H](C)[C@@H]1NC(=O)[C@@H]2CCCN2C(=O)[C@@H]2CCCN2C(=O)[C@H]([C@@H](C)CC)NC(=O)[C@H](CO)NC(=O)[C@H](CCCCN)NC(=O)[C@H]([C@@H](C)O)NC(=O)CNC(=O)[C@H](CCCCN)NC(=O)[C@H](C)NC(=O)CNC(=O)[C@@H](N)CSSC[C@@H](C(=O)N[C@@H](Cc2ccccc2)C(=O)N2CCC[C@H]2C(=O)N[C@@H](CC(=O)O)C(=O)O)NC1=O [BT2] (H-CGAKGTKSIPPICFPD-OH; disulfide 1-13; N-terminus and C-terminus assumed)
experimental-system: bovine trypsin (Bos taurus)
Residual trypsin activity, %: 83.6
--
compound: CC[C@H](C)[C@@H]1NC(=O)[C@@H]2CCCN2C(=O)[C@@H]2CCCN2C(=O)[C@H]([C@@H](C)CC)NC(=O)[C@H](CO)NC(=O)[C@H](CCCCN)NC(=O)[C@H]([C@@H](C)O)NC(=O)[C@H](C)NC(=O)[C@H](CO)NC(=O)CNC(=O)[C@@H](N)CSSC[C@@H](C(=O)N[C@@H](Cc2ccccc2)C(=O)N2CCC[C@H]2C(=O)N[C@@H](CC(=O)O)C(=O)O)NC1=O [BT6] (H-CGSATKSIPPICFPD-OH; disulfide 1-12; N-terminus and C-terminus assumed)
experimental-system: bovine trypsin (Bos taurus)
Residual trypsin activity, %: 8.5
--
compound: CC[C@H](C)[C@@H]1NC(=O)[C@@H]2CCCN2C(=O)[C@@H]2CCCN2C(=O)[C@H]([C@@H](C)CC)NC(=O)[C@H](CO)NC(=O)[C@H](CCCCN)NC(=O)[C@H]([C@@H](C)O)NC(=O)[C@H](C)NC(=O)[C@H](CCCNC(=N)N)NC(=O)CNC(=O)[C@@H](N)CSSC[C@@H](C(=O)O)NC(=O)[C@H](Cc2ccccc2)NC(=O)[C@H](C)NC1=O [BT11] (H-CGRATKSIPPIAFC-OH; disulfide 1-14; N-terminus and C-terminus assumed)
experimental-system: bovine trypsin (Bos taurus)
Residual trypsin activity, %: 101.5
--
compound: CC[C@H](C)[C@@H]1NC(=O)[C@@H]2CCCN2C(=O)[C@@H]2CCCN2C(=O)[C@H]([C@@H](C)CC)NC(=O)[C@H](CO)NC(=O)[C@H](CCCNC(=N)N)NC(=O)[C@H]([C@@H](C)O)NC(=O)[C@H](C)NC(=O)[C@H](CCCNC(=N)N)NC(=O)CNC(=O)[C@@H](N)CSSC[C@@H](C(=O)N[C@@H](Cc2ccccc2)C(=O)O)NC1=O [BT17] (H-CGRATRSIPPICF-OH; disulfide 1-12; C-terminus assumed)
experimental-system: bovine trypsin (Bos taurus)
Residual trypsin activity, %: 1.5
--
compound: CC[C@H](C)[C@@H]1NC(=O)[C@@H]2CCCN2C(=O)[C@@H]2CCCN2C(=O)[C@H]([C@@H](C)CC)NC(=O)[C@H](CO)NC(=O)[C@H](CCCCN)NC(=O)[C@H]([C@@H](C)O)NC(=O)[C@H](C)NC(=O)[C@H](CCCNC(=N)N)NC(=O)CNC(=O)[C@@H](N)CSSC[C@@H](C(=O)N[C@@H](Cc2ccccc2)C(=O)N2CCC[C@H]2C(=O)N[C@@H](CC(=O)O)C(=O)O)NC1=O [BT5] (H-CGRATKSIPPICFPD-OH; disulfide 1-12; N-terminus and C-terminus assumed)
experimental-system: bovine trypsin (Bos taurus)
Residual trypsin activity, %: 0.7

QUERY: Consider the compound CCCC[C@@H]1NC(=O)[C@H](CCCNC(=N)N)NC(=O)CNC(=O)[C@@H](N)CSSC[C@@H](C(=O)N[C@@H](Cc2ccccc2)C(=O)O)NC(=O)[C@H]([C@@H](C)CC)NC(=O)[C@@H]2CCCN2C(=O)[C@@H]2CCCN2C(=O)[C@H]([C@@H](C)CC)NC(=O)[C@H](CO)NC(=O)[C@H](CCCCN)NC(=O)[C@H]([C@@H](C)O)NC1=O [BT50] (H-CGR[Nle]TKSIPPICF-OH; disulfide 1-12; C-terminus assumed) and give its recorded Residual trypsin activity.
RESULT: 0.1
